Tested on: IGROV-1
Assay: NCI tumour cell line growth inhibition, 48 h
Active and inactive are the calls of the source. Rule as the data show it: active = GI50 up to about 1.1 µM and inactive = higher.
Task for the reader: assign each of the following molecules its reported GI50.

Hello, I would appreciate it if you could give GI50 for each entry below.
1. O=C(CCSC(CC(=O)c1ccc(Cl)cc1)c1ccc(Cl)cc1)Nc1ccc(Cl)cc1 (stereo unspecified)
2. Nn1c(SCC(=O)NCc2ccccc2)nc2ccccc2c1=O
3. CCCCCCCCCCCCC(Br)C(C)=O (stereo unspecified)
4. Cc1ccc(S(=O)(=O)N2CCc3cc(O)c([N+](=O)[O-])cc32)cc1
5. C=CCc1[nH]c2c(OCc3ccccc3)cc(N(CC=C)C(C)=O)cc2c1C
6. O=C1Sc2ccccc2NC1=C(C(=O)c1ccccc1)C(=O)c1ccccc1
7. NS(=O)(=O)c1ccc(CNC(=S)NC(=O)Nc2ccc(Cl)c(Cl)c2)cc1

Output:
1. 14.9 µM (inactive)
2. 53.3 µM (inactive)
3. > 100 µM (inactive)
4. > 100 µM (inactive)
5. 14.4 µM (inactive)
6. 38.4 µM (inactive)
7. 17.9 µM (inactive)

Hello, I would appreciate it if you could give GI50 for each entry below.
1. O=C(N/C(=C\c1ccc([N+](=O)[O-])cc1)c1nc2cc(Cl)ccc2[nH]1)c1ccccc1
2. O=C(/C=C/c1ccc(O)c([N+](=O)[O-])c1)CC(=O)/C=C/c1ccc(O)c([N+](=O)[O-])c1
3. O=C(O)CSc1ccc([N+](=O)[O-])cc1[N+](=O)[O-]
4. COc1cccc(C2c3cc4c(cc3OC(N3CCCC3)C2c2ccccc2)OCO4)c1O (stereo unspecified)
5. O=P(O)(O)c1ccc(-c2ccc(I)cc2)cc1
6. COc1cc(/C=C2\CCC/C(=C\c3ccc(OC(=O)CCCCC4CCSS4)c(OC)c3)C2=O)ccc1OC(=O)CCCCC1CCSS1 (stereo unspecified)

Output:
1. 16.9 µM (inactive)
2. 24.9 µM (inactive)
3. > 100 µM (inactive)
4. 7.59 µM (inactive)
5. > 100 µM (inactive)
6. > 100 µM (inactive)

Hello, I would appreciate it if you could give GI50 for each entry below.
1. CN(NC(=O)c1ccco1)C1=NCCCCN1
2. CC1=CC(C)C(C)N(CCNS(=O)(=O)c2ccc(C)cc2)c2ccccc21 (stereo unspecified)
3. O=c1c(C(c2cccc(C(c3c(O)oc4ccccc4c3=O)c3c(O)oc4ccccc4c3=O)c2)c2c(O)oc3ccccc3c2=O)c(O)oc2ccccc12
4. CCOc1ccc(/C(Cl)=C(\C=O)c2ccc(OC)c(OC)c2)cc1OCC
5. COc1cc(C2SC(=N)Nc3c2c(C)nn3C(=O)c2ccc(Cl)cc2)cc(OC)c1OC (stereo unspecified)
6. COc1cc(CCc2cccnc2)cc(OC)c1OC

Output:
> 100 µM (inactive)
17 µM (inactive)
34 µM (inactive)
> 100 µM (inactive)
> 10 µM (inactive)
> 100 µM (inactive)

Hello, I would appreciate it if you could give GI50 for each entry below.
1. O=C1NC(=O)C(CC(C(=O)C(=O)Nc2ccccc2Cl)C(=O)c2ccc3ccccc3c2)C(=O)N1 (stereo unspecified)
2. CCOc1ccc2ccc3cccnc3c2n1

Output:
1: > 100 µM (inactive); 2: 38.5 µM (inactive)

* * *

System: XF498
Assay: NCI tumour cell line growth inhibition, 48 h
Activity calls are given as the source filed them. Rule as the data show it: active = GI50 up to about 1.1 µM and inactive = higher.
Measure: GI50

# example entries with known answers
Compound: OCC(O)C(OC1OC(CO)C(O)C(O)C1O)c1nn(-c2ccc(F)cc2)c2nc3cc(Cl)c(Cl)cc3cc12 (stereo not given)
Measure: GI50
Value Reported: > 100 µM (inactive)

Compound: NC(=O)C(=O)N/N=C1\C(=O)N(c2ccc(Cl)cc2Cl)C(=O)C1C(=O)Nc1ccc(Cl)cc1Cl (stereo not given)
Measure: GI50
Value Reported: > 100 µM (inactive)

Hello, I would appreciate it if you could give GI50 for each entry below.
1. COc1ccc([C@@H]2OC(=O)C3C2C(=O)O[C@H]3c2ccc(OC)cc2)cc1 (stereo not given in full)
2. CC1=CC(=O)NP(=O)(Oc2ccc(C)cc2)N1 (stereo not given)

Output:
1: > 100 µM (inactive); 2: > 100 µM (inactive)

* * *

System: T47D
Assay: NCI tumour cell line growth inhibition, 48 h
Activity calls are given as the source filed them. Cut-off read from the data, not from the text of the source: active = GI50 up to about 1.1 µM and inactive = higher.
Reply using exactly one outcome from class 1 for active, class 0 for inactive

Compound: CC(=O)OCC1OC(N2C(=O)NC(=O)C3C=C4CCCCC4=CC32)CC1OC(C)=O (stereo not given)
Qualitative Label: class 0

Compound: COc1ccc(C2=Cc3nc2c(-c2ccccc2)c2ccc([nH]2)c(-c2ccccc2)c2nc(c(-c4ccccc4)c4ccc([nH]4)c3-c3ccccc3)C=C2)cc1
Qualitative Label: class 0

Compound: O=C1Nc2cccc3cc(NCC(O)CCl)cc1c23 (stereo not given)
Qualitative Label: class 0

Compound: CC1(C)[C@@H](Cn2cnc3c(Cl)nc(N)nc32)CC[C@@]1(C)CO
Qualitative Label: class 0

Compound: CC1(C)OC(=O)N(c2ccccc2)C12C=Cc1cccc([N+](=O)[O-])c1O2 (stereo not given)
Qualitative Label: class 0

Compound: CCc1ncc(CO)n1Cc1cccc2ccccc12
Qualitative Label: class 0

Compound: COc1cccc(CC(=O)N2CCN(CCCc3ccccc3)CC2)c1
Qualitative Label: class 0

Compound: Cc1ccc(-c2c3c(n(C4OC(CO)C(O)C(O)C4O)c(=S)c2C#N)CC(C)(C)CC3=O)cc1 (stereo not given)
Qualitative Label: class 0

Compound: O=C1NC2CCCCC2N=C1CC(=O)c1ccc(Br)cc1 (stereo not given)
Qualitative Label: class 0

Compound: CC1=NN=C(N)N/C1=C/C(Sc1ccc(Cl)cc1)c1cccs1 (stereo not given)
Qualitative Label: class 0

Task: Dear all, I need the recorded test outcome for CC1=NN(C(=O)CC(=O)Nc2cccc(Cl)c2)C(=O)C1/N=N/c1ccc(C(=O)O)cc1 (stereo not given) , thank you.
Output: class 0

Task: Same thing, different compound: `CCc1n[nH]c(=O)n1CCCCCCCCn1c(CC)n[nH]c1=O`
Output: class 0

Task: Same thing, different compound: COC(=O)c1cc(C)ccc1C1CN=NC12Cc1ccc(C)cc1C2=O (stereo not given)
Output: class 0

Task: Same thing, different compound: `COc1ccc(CCCNC(=O)c2cc(OC)c(OC)cc2CCO)cc1OC`
Output: class 0

Task: Same thing, different compound: COc1cc(C2SC(=N)Nc3c2c(C)nn3C(=O)c2ccc(Cl)cc2)cc(OC)c1OC (stereo not given)
Output: class 0

Task: Same thing, different compound: `O=C(NNC(=O)c1ccccc1O)c1ccccc1O`
Output: class 1

Task: Same thing, different compound: CCc1c(Cc2cc(C)cc(C)c2)n2c(nc1=O)SCC2CBr (stereo not given)
Output: class 0

Task: Same thing, different compound: O=C1CC(c2ccc(Cl)cc2)Oc2ccccc21 (stereo not given)
Output: class 0

Task: Same thing, different compound: `CC(=O)O[C@H]1CC[C@@]2(C)C(=CC[C@H]3[C@@H]4C[C@H](N5CCCC5)[C@H](OC(C)=O)[C@@]4(C)CC[C@@H]32)C1`
Output: class 0

Task: Same thing, different compound: `C[C@H]1C[C@H]2[C@@H]3CCC4=CC(=O)C=C[C@]4(C)C3=CC[C@]2(C)[C@@]1(O)C(=O)CO`
Output: class 0

* * *

Task for the reader: assign each of the following molecules its reported GI50.
Tested on: U-251
Assay: NCI tumour cell line growth inhibition, 48 h
Active and inactive are the calls of the source. Rule as the data show it: active = GI50 up to about 1.1 µM and inactive = higher.

Molecule: CC(=O)OC1CC2OC(Cc3ccccc32)O1 (centres undefined)
Measure: GI50
Value Reported: 52.1 µM (inactive)

Hello, I would appreciate it if you could give GI50 for each entry below.
1. O=C1c2ccccc2C(=O)N1Cc1ccccc1-c1c2nc(c(-c3ccccc3CN3C(=O)c4ccccc4C3=O)c3ccc([nH]3)c(-c3ccccc3CN3C(=O)c4ccccc4C3=O)c3nc(c(-c4ccccc4CN4C(=O)c5ccccc5C4=O)c4ccc1[nH]4)C=C3)C=C2
2. O=C(/C=C\Nc1ccccc1O)C(Cl)(Cl)Cl
3. N#CC1(C#N)NC(c2cccs2)C(C#N)(C#N)NC1c1cccs1 (centres undefined)

Output:
> 100 µM (inactive)
26.9 µM (inactive)
22.8 µM (inactive)

* * *

Test system: UACC-257
Assay: NCI tumour cell line growth inhibition, 48 h
The source made the active and inactive calls. Cut-off read from the data, not from the text of the source: active = GI50 up to about 1.1 µM and inactive = higher.
Task for the reader: assign each of the following compounds its reported GI50.

Compound: Nc1ncnc2c1ncn2C1OC(CO)=CC1O (centres undefined)
Value Reported: > 37.5 µM (inactive)
//
Compound: O=C(CCCN1CCC2(CC1)CC(c1ccccc1)OC2=O)c1ccc(F)cc1 (centres undefined)
Value Reported: 23.6 µM (inactive)
//
Compound: Cc1cc(S(=O)(=O)/N=C(\NN)NCC(=O)NN)c(S)cc1Cl
Value Reported: > 10 µM (inactive)
//
Compound: Nc1nc(Cl)cc(/N=N\c2ccccc2)n1
Value Reported: 36.1 µM (inactive)
//
Compound: O=C1OC(c2ccccc2)=N/C1=C\c1cccc(F)c1
Value Reported: 32.7 µM (inactive)
//
Compound: CCc1nnc(-c2nsc3ccccc23)s1
Value Reported: > 100 µM (inactive)
//
Compound: CN(C)c1ccc(/N=N\c2cccc3ncccc23)cc1
Value Reported: > 100 µM (inactive)
//
Compound: CC1OC(n2cc(C(F)(F)F)c(=O)[nH]c2=O)C=CC1=O (centres undefined)
Value Reported: 19.1 µM (inactive)

Would you kindly look at the next entry?
Task: Which value of GI50 has been reported for `S=C1Cc2c(-c3ccccc3)cc(-c3ccc(Cl)cc3)nc2-c2ccccc2N1` in the records?
Output: 4.7 µM (inactive)
